- Test system: HCC-2998 colon
- assay: NCI tumour cell line growth inhibition, 48 h
quantity: TGI (µM)
# output: bare number, implied unit µM

Here is how some molecules turned out for TGI.
According to the records, this molecule `CCCCNC(=O)Oc1ccc2c(=O)c3sc4c(=O)c5ccccc5c(=O)c4c3c(=O)c2c1` displays TGI of 2.01

# TGI of `NCCCn1c2c(c3cc4c(cc3c1=O)OCO4)C(=O)c1ccccc1-2` = 0.718

In plain terms, `CCOC(=O)c1c(C)[nH]c(/C=C2\N=C(c3ccc[nH]3)C=C2OC)c1C` has a documented TGI of 1.18

TGI recorded for this molecule, OCCN=C1c2ccccc2C2C(c3ccccc31)C1c3ccccc3C(=NCCO)c3ccccc3C21 (centres undefined) , is 40.5

According to the records, this molecule `C=Cc1cc2c(cc1O)CC[C@@H]1[C@@H]2CC[C@]2(C)[C@@H](O)CC[C@@H]12` displays TGI of 25.4

For this molecule ( `CC(=N/NC(=S)N1CCCCC1)/C(C)=N\NC(=S)N1CCCCC1` ), measured TGI is 3.48

So, `CN(C1=NS(=O)(=O)N=C(N(C)c2ccccc2)O1)c1ccccc1` ? Its TGI was 36.7

Measured TGI of CCn1cc(C(=O)N/N=C/c2cccc(F)c2)c(=O)c2cc(F)c(N3CCNC(C)C3)c(F)c21 (centres undefined) : 3.53

Record summary for CCC(c1ccc(OC)cc1)C(CC)c1ccc(O)c(CN2CCCC2)c1 (centres undefined) : reported TGI = 4.38

Entry `O=C(NCCCCNCCCNC(=O)c1cc(-c2ccccc2)nc2ccccc12)c1cc(-c2ccccc2)nc2ccccc12` ; TGI = 3.09

---
The reported TGI of the molecule `CSc1ccc(/C=C2\N=C(c3ccccc3)N(c3nc4c(Cl)cc(Cl)cc4s3)C2=O)cc1` was 94

The value of TGI measured for the molecule `ClC1(c2ccccc2)c2ccc(Br)cc2-c2cc(Br)ccc21` turned out to be 36.2

For this molecule ( `CC(=O)O[C@H]1CC[C@@]2(C)C(=CC[C@@H]3[C@@H]2CC[C@]2(C)c4c(cc(C#N)c(=N)n4C(C)=O)C[C@@H]32)C1` ), measured TGI is 41.9
